Assignment: determine reported kinase still bound, per cent of control for the given molecules.
# target.or.test.system: LATS2 (human) (UniProt Q9NRM7)
# Sequence (Q9NRM7 whole entry, looked up): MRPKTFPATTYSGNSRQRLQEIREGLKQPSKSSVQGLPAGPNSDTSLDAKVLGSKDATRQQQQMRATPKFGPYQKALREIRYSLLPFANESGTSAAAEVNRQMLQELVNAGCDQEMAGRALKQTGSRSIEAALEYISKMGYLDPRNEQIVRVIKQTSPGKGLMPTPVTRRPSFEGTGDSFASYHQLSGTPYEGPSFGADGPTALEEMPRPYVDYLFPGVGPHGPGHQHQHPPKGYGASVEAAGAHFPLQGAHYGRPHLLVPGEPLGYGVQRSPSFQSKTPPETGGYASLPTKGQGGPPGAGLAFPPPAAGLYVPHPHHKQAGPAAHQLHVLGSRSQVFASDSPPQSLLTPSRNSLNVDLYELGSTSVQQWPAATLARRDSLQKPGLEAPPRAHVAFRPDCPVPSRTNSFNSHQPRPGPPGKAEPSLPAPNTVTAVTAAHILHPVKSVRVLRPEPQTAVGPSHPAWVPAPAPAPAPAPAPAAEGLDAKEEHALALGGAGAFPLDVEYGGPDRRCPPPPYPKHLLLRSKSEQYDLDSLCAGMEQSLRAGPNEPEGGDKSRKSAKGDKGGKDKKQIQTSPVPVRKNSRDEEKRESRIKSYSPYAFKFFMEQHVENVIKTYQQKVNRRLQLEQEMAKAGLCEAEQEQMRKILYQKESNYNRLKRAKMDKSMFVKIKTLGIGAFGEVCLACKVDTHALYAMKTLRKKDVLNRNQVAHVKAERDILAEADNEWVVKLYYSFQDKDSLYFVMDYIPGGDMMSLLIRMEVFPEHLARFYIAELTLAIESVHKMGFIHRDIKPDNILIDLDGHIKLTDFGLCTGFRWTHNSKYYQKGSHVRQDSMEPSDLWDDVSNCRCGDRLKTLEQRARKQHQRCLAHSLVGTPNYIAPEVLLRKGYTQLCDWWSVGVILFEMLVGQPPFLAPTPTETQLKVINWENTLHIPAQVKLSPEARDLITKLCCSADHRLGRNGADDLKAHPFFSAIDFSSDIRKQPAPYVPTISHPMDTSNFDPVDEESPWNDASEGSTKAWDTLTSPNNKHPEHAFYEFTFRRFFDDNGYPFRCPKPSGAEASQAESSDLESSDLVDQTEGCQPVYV
# test.summary: KINOMEscan competition binding
# reported.conditions: compound 10.0 µM
One number for each entry, in %.

# count of solved cases: 10
| molecule | endpoint.unit | kinase still bound, per cent of control |
| --- | --- | --- |
| COc1cc(N2CCN(C)CC2)ccc1Nc1ncc2c(n1)Nc1ccccc1NC2=O | % | 89 |
| CN1C(=O)[C@H]2CCC[C@H]2N(C2CCCC2)c2nc(Nc3ccc4ncccc4c3)ncc21 | % | 14 |
| CN1CCN(c2ccc(C(=O)Nc3ncc4c(n3)N(C)c3ccccc3C(=O)N4C)cc2)CC1 | % | 100 |
| CN1C(=O)c2ccccc2N(C)c2nc(Nc3ccc(N4CCC(O)CC4)cc3)ncc21 | % | 100 |
| COc1cc(N2CCN(C)CC2)ccc1Nc1ncc2c(n1)N(C)c1ccccc1N(C)C2=O | % | 75 |
| COc1cc(N2CCC(O)CC2)ccc1Nc1ncc2c(n1)N1CCc3cccc(c31)C(=O)N2C | % | 100 |
| CN1C(=O)c2ccccc2N(C)c2nc(NS(=O)(=O)c3ccc(N)cc3)ncc21 | % | 100 |
| COc1cc(N2CCN(C)CC2)ccc1Nc1ncc2c(n1)N(C)c1sccc1C(=O)N2C | % | 100 |
| Cc1cn(-c2cc(NC(=O)c3cccc4cc(-c5ccc(/C=C6\SC(=N)NC6=O)o5)ccc34)cc(C(F)(F)F)c2)cn1 | % | 31 |
| NS(=O)(=O)c1ccc(-c2ccc(/C=C3\SC(=S)N(CC(=O)O)C3=O)o2)cc1 | % | 25 |

Hi team, please reply with kinase still bound, per cent of control for each item in this list.
1. O=C1NC(=O)/C(=C/c2c[nH]c(=O)c(-c3ccc(N4CCNCC4)nc3)c2)S1
2. CS(=O)C1=NC(=O)/C(=C/c2ccc(-c3ccc(S(N)(=O)=O)cc3)o2)S1 (stereo not drawn)
3. NS(=O)(=O)c1ccc(-c2ccc(/C=C3\SC(=O)NC3=O)o2)cc1

**A:**
1: 100; 2: 21; 3: 8.1

====

# target.or.test.system: FLT1 (human) (UniProt P17948)
# Sequence (P17948 whole entry, looked up): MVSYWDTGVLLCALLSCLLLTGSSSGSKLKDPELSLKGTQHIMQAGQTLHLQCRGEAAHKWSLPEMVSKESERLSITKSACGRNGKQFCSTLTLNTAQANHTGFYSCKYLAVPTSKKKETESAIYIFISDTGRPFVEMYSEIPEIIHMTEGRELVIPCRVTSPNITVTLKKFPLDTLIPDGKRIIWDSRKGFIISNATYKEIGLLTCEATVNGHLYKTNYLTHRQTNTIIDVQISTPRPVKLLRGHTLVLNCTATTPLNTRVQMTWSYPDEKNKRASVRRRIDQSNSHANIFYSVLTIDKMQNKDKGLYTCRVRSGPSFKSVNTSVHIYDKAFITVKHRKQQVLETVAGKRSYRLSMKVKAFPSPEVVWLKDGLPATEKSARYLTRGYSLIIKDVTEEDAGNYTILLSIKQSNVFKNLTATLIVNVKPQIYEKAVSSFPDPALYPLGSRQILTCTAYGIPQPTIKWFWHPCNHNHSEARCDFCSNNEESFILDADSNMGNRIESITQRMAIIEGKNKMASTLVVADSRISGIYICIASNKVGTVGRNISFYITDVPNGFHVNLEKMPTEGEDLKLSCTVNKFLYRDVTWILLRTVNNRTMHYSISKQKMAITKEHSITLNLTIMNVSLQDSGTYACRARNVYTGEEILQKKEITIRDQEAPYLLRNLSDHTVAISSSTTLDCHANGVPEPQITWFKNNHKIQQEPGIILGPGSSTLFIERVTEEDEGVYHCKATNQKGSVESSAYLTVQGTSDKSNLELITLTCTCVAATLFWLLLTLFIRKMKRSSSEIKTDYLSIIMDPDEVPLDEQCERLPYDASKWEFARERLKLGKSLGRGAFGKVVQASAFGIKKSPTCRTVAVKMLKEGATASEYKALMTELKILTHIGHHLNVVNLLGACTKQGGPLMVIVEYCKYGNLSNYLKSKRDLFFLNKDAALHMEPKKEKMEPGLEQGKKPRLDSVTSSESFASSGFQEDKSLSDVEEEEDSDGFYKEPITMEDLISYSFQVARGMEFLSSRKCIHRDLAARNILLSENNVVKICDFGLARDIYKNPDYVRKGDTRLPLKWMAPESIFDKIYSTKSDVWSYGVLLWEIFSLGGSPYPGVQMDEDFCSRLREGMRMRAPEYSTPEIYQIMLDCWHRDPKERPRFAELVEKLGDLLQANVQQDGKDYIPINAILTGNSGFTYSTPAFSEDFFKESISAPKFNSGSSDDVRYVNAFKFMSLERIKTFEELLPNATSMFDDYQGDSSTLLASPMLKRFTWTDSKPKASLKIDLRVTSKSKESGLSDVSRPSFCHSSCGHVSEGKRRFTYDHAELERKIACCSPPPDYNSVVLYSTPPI
# test.summary: KINOMEscan competition binding
# reported.conditions: compound 10.0 µM
readout.label: kinase still bound, per cent of control (%)
Give bare numbers, in %.

Answered examples (5):
| compound | endpoint.unit | assay.result |
| --- | --- | --- |
| COc1cc(N2CCN(C)CC2)ccc1Nc1ncc2c(n1)Nc1ccccc1NC2=O | % | 45 |
| COc1cc(N2CCN(C)CC2)ccc1Nc1ncc2c(n1)N(C)c1ccccc1N(C)C2=O | % | 100 |
| CN1C(=O)c2ccccc2N(C)c2nc(NS(=O)(=O)c3ccc(N)cc3)ncc21 | % | 100 |
| COc1cc(N2CCC(O)CC2)ccc1Nc1ncc2c(n1)N1CCc3cccc(c31)C(=O)N2C | % | 100 |
| COc1cc(N2CCN(C)CC2)ccc1Nc1ncc2c(n1)N(C)c1sccc1C(=O)N2C | % | 100 |

Please state kinase still bound, per cent of control for every compound in the list that follows.
1. CN1C(=O)c2ccccc2N(C)c2nc(Nc3ccc(N4CCC(O)CC4)cc3)ncc21
2. CCN1CCN(Cc2cc(NC(=O)c3cccc4cc(-c5ccc(/C=C6\SC(=O)NC6=O)o5)ccc34)cc(C(F)(F)F)c2)CC1
3. O=C1NC(=O)/C(=C/c2c[nH]c(=O)c(-c3ccc(N4CCNCC4)nc3)c2)S1
4. O=C1NC(=S)S/C1=C\c1ccc(-c2cncc3ccccc23)o1
5. CN1CCN(c2ccc(C(=O)Nc3ncc4c(n3)N(C)c3ccccc3C(=O)N4C)cc2)CC1

**A:**
[94, 12, 93, 28, 100]
